# TGT: p62-D3-GST, Q13501
No end group written: not given here.
EXPERIMENTAL ENDPOINT: Kd (µM)
Return type: number; implicit unit µM.

Req: Query: Kd; subject: FIFSTIEGRTY (not fully specified) [F11 peptide (biotin-labeled X-peptide with N-terminal Phe)]
Resp: 3.4
